For each entry below, report its MIC value.
# System: MRSA ATCC 700787 VRSA
# measurement_notes: MIC, broth microdilution
# Type: cell-based, Staphylococcus aureus
# details: MRSA ATCC 700787 VRSA
Only the number, expressed in µg/mL, is required.

*Q* Provide measured MIC value, entry: CCCCCCCC(=O)NC1C(OC2c3ccc(c(Cl)c3)Oc3cc4cc(c3O)Oc3ccc(cc3Cl)CC3NC(=O)C(N)c5ccc(O)c(c5)Oc5cc(O)cc(c5)C(NC3=O)C(=O)NC4C(=O)NC3C(=O)NC2C(=O)NC(C(=O)O)c2cc(O)cc(OC4OC(CO)C(O)C(O)C4O)c2-c2cc3ccc2O)OC(CO)C(O)C1O (stereo not drawn)
*A* 0.5

*Q* Identify MIC associated with the compound `CCCCCCCC(=O)N[C@H]1[C@H](O[C@@H]2c3ccc(c(Cl)c3)Oc3cc4cc(c3O)Oc3ccc(cc3Cl)C[C@H]3NC(=O)[C@H](N(C)C)c5ccc(O)c(c5)Oc5cc(O)cc(c5)[C@H](NC3=O)C(=O)N[C@H]4C(=O)N[C@H]3C(=O)N[C@@H]2C(=O)N[C@H](C(=O)O)c2cc(O)cc(O)c2-c2cc3ccc2O)O[C@H](CO)[C@@H](O)[C@@H]1O`
*A* 0.016

*Q* For the compound `CCCCCCCC(=O)N[C@H]1[C@H](O[C@@H]2c3ccc(c(Cl)c3)Oc3cc4cc(c3O)Oc3ccc(cc3Cl)C[C@H]3NC(=O)[C@H](N)c5ccc(O)c(c5)Oc5cc(O)cc(c5)[C@H](NC3=O)C(=O)N[C@H]4C(=O)N[C@H]3C(=O)N[C@@H]2C(=O)N[C@H](C(=O)O)c2cc(O)cc(O)c2-c2cc3ccc2O)O[C@H](CO)[C@@H](O)[C@@H]1O` , give its measured MIC value.
*A* 0.016

*Q* Quick one: give measured MIC for `CN(C)[C@H]1C(=O)N[C@@H]2Cc3ccc(c(Cl)c3)Oc3cc4cc(c3O)Oc3ccc(cc3Cl)[C@@H](O[C@@H]3O[C@H](CO)[C@@H](O)[C@H](O)[C@H]3NC(=O)CCCCCCCNC(=N)N)[C@@H]3NC(=O)[C@H](NC(=O)[C@@H]4NC(=O)[C@@H](NC2=O)c2cc(O)cc(c2)Oc2cc1ccc2O)c1ccc(O)c(c1)-c1c(O)cc(O)cc1[C@@H](C(=O)O)NC3=O`
*A* 0.016

*Q* Give the value of MIC reported for the following: `N[C@H]1C(=O)N[C@@H]2Cc3ccc(c(Cl)c3)Oc3cc4cc(c3O)Oc3ccc(cc3Cl)[C@@H](O[C@@H]3O[C@H](CO)[C@@H](O)[C@H](O)[C@H]3NC(=O)CCCCCCCCCCCO)[C@@H]3NC(=O)[C@H](NC(=O)[C@@H]4NC(=O)[C@@H](NC2=O)c2cc(O)cc(c2)Oc2cc1ccc2O)c1ccc(O)c(c1)-c1c(O)cc(O)cc1[C@@H](C(=O)O)NC3=O`
*A* 0.016

*Q* Return MIC (reported value) for this compound: `CC(=O)N[C@H]1[C@H](O[C@@H]2c3ccc(c(Cl)c3)Oc3cc4cc(c3O)Oc3ccc(cc3Cl)C[C@H]3NC(=O)[C@H](N(C)C)c5ccc(O)c(c5)Oc5cc(O)cc(c5)[C@H](NC3=O)C(=O)N[C@H]4C(=O)N[C@H]3C(=O)N[C@@H]2C(=O)N[C@H](C(=O)O)c2cc(O)cc(O)c2-c2cc3ccc2O)O[C@H](CO)[C@@H](O)[C@@H]1O`
*A* 0.5

====

# System: VRE ATCC 700221 (vanA)
# measurement_notes: MIC, broth microdilution
# Assay type: cell-based, enterococci
# details: VRE ATCC 700221 (vanA)
metric_name: MIC

*Q* Input N[C@H]1C(=O)N[C@@H]2Cc3ccc(c(Cl)c3)Oc3cc4cc(c3O)Oc3ccc(cc3Cl)[C@@H](O[C@@H]3O[C@H](CO)[C@@H](O)[C@H](O)[C@H]3NC(=O)CCCCc3ccc(F)cc3)[C@@H]3NC(=O)[C@H](NC(=O)[C@@H]4NC(=O)[C@@H](NC2=O)c2cc(O)cc(c2)Oc2cc1ccc2O)c1ccc(O)c(c1)-c1c(O)cc(O)cc1[C@@H](C(=O)O)NC3=O [Compound 18] , output reported MIC.
*A* >16 µg/mL

*Q* Provide one value: measured MIC of CCCCCCCC(=O)N[C@H]1[C@H](O[C@@H]2c3ccc(c(Cl)c3)Oc3cc4cc(c3O)Oc3ccc(cc3Cl)C[C@H]3NC(=O)[C@H](N(C)C)c5ccc(O)c(c5)Oc5cc(O)cc(c5)[C@H](NC3=O)C(=O)N[C@H]4C(=O)N[C@H]3C(=O)N[C@@H]2C(=O)N[C@H](C(=O)O)c2cc(O)cc(O)c2-c2cc3ccc2O)O[C@H](CO)[C@@H](O)[C@@H]1O [Compound 20]
*A* >16 µg/mL

*Q* Retrieve MIC measured for CN(C)[C@H]1C(=O)N[C@@H]2Cc3ccc(c(Cl)c3)Oc3cc4cc(c3O)Oc3ccc(cc3Cl)[C@@H](O[C@@H]3O[C@H](CO)[C@@H](O)[C@H](O)[C@H]3NC(=O)CCCCCCCN)[C@@H]3NC(=O)[C@H](NC(=O)[C@@H]4NC(=O)[C@@H](NC2=O)c2cc(O)cc(c2)Oc2cc1ccc2O)c1ccc(O)c(c1)-c1c(O)cc(O)cc1[C@@H](C(=O)O)NC3=O [Compound 22] and print it.
*A* >16 µg/mL

====

I'd appreciate it if you could supply MIC values for the items below.
# Tested on: E. faecalis ATCC 29302
# measurement_notes: MIC, broth microdilution
# Type: cell-based
# details: EF ATCC 29302
All answers are understood in µg/mL, so give the number only.

*Q* // fetch MIC given entry CN(C)[C@H]1C(=O)N[C@@H]2Cc3ccc(c(Cl)c3)Oc3cc4cc(c3O)Oc3ccc(cc3Cl)[C@@H](O[C@@H]3O[C@H](CO)[C@@H](O)[C@H](O)[C@H]3NC(=O)CCCCCCC[N+](C)(C)C)[C@@H]3NC(=O)[C@H](NC(=O)[C@@H]4NC(=O)[C@@H](NC2=O)c2cc(O)cc(c2)Oc2cc1ccc2O)c1ccc(O)c(c1)-c1c(O)cc(O)cc1[C@@H](C(=O)O)NC3=O [Compound 23]
*A* 0.25

*Q* Identify measured MIC associated with CCCCCCCC(=O)N[C@H]1[C@H](O[C@@H]2c3ccc(c(Cl)c3)Oc3cc4cc(c3O)Oc3ccc(cc3Cl)C[C@H]3NC(=O)[C@H](N)c5ccc(O)c(c5)Oc5cc(O)cc(c5)[C@H](NC3=O)C(=O)N[C@H]4C(=O)N[C@H]3C(=O)N[C@@H]2C(=O)N[C@H](C(=O)O)c2cc(O)cc(O)c2-c2cc3ccc2O)O[C@H](CO)[C@@H](O)[C@@H]1O [Compound 14, r6,N-octyl-Glc Tei]
*A* 0.25

*Q* Answer with reported MIC of C#CCCC(=O)N[C@H]1[C@H](O[C@@H]2c3ccc(c(Cl)c3)Oc3cc4cc(c3O)Oc3ccc(cc3Cl)C[C@H]3NC(=O)[C@H](N)c5ccc(O)c(c5)Oc5cc(O)cc(c5)[C@H](NC3=O)C(=O)N[C@H]4C(=O)N[C@H]3C(=O)N[C@@H]2C(=O)N[C@H](C(=O)O)c2cc(O)cc(O)c2-c2cc3ccc2O)O[C@H](CO)[C@@H](O)[C@@H]1O [Compound 13]
*A* 0.5

*Q* Quickly give me recorded MIC for CN(C)[C@H]1C(=O)N[C@@H]2Cc3ccc(c(Cl)c3)Oc3cc4cc(c3O)Oc3ccc(cc3Cl)[C@@H](O[C@@H]3O[C@H](CO)[C@@H](O)[C@H](O)[C@H]3NC(=O)CCCCCCCN)[C@@H]3NC(=O)[C@H](NC(=O)[C@@H]4NC(=O)[C@@H](NC2=O)c2cc(O)cc(c2)Oc2cc1ccc2O)c1ccc(O)c(c1)-c1c(O)cc(O)cc1[C@@H](C(=O)O)NC3=O [Compound 22]
*A* 1

*Q* Answer with the recorded MIC of N[C@H]1C(=O)N[C@@H]2Cc3ccc(c(Cl)c3)Oc3cc4cc(c3O)Oc3ccc(cc3Cl)[C@@H](O[C@@H]3O[C@H](CO)[C@@H](O)[C@H](O)[C@H]3NC(=O)CCCCCc3ccccc3)[C@@H]3NC(=O)[C@H](NC(=O)[C@@H]4NC(=O)[C@@H](NC2=O)c2cc(O)cc(c2)Oc2cc1ccc2O)c1ccc(O)c(c1)-c1c(O)cc(O)cc1[C@@H](C(=O)O)NC3=O [Compound 16] only.
*A* 0.25

*Q* Write down MIC measured for item CN(C)[C@H]1C(=O)N[C@@H]2Cc3ccc(c(Cl)c3)Oc3cc4cc(c3O)Oc3ccc(cc3Cl)[C@@H](O[C@@H]3O[C@H](CO)[C@@H](O)[C@H](O)[C@H]3NC(=O)CCCCCCCNC(=N)N)[C@@H]3NC(=O)[C@H](NC(=O)[C@@H]4NC(=O)[C@@H](NC2=O)c2cc(O)cc(c2)Oc2cc1ccc2O)c1ccc(O)c(c1)-c1c(O)cc(O)cc1[C@@H](C(=O)O)NC3=O [Compound 24, r1,Me2-r6,C8-guanidino-Tei]
*A* 0.5
